The reported numbers originate from ChEMBL document CHEMBL5360657.

Entries and their Cmax
Test: Cmax in rat at 1 mg/ml, po
Assay type: ADME
Parameters: dose 1 mg/ml, route po
Conditions: in vivo
Supply the numeric figure in nM, leaving out any unit text.

Known results for molecules:
>>> observed("CCNCC(=O)NC12CCC(Cn3nc(C)c4c3CCN(c3cc(C)nc5c3cnn5C)C4)(CC1)CC2")
48
>>> observed("Cc1cc(N2CCc3c(c(C)nn3CC34CCC(NC(=O)[C@@H]5COCCN5)(CC3)CC4)C2)c2cnn(C)c2n1 [MHV-370]")
282

Below: the item to evaluate.
Note to self: Cmax recorded for `CN[C@@H](C)C(=O)NC12CCC(Cn3nc(C)c4c3CCN(c3cc(C)nc5c3cnn5C)C4)(CC1)CC2` was 31

----------
Assay: Permeability of the compound by PAMPA
Format: ADME
METRIC: log(permeability)
// no unit string in output, number only

>>> observed("Cc1cc(N2CCc3c(c(C)nn3CC34CCC(NC(=O)CN(C)C)(CC3)CC4)C2)c2cnn(C)c2n1")
-4.3
>>> observed("Cc1cc(N2CCc3c(c(C)nn3CC34CCC(N(C)C)(CC3)CC4)C2)c2cnn(C)c2n1")
-4.6
>>> observed("Cc1cc(N2CCc3c(c(C)nn3CC34CCC(N5CCN(C)CC5=O)(CC3)CC4)C2)c2cnn(C)c2n1")
-4.3
>>> observed("Cc1cc(N2CCc3c(c(C)nn3CC34CCC(N5CCN(C)C(=O)C5)(CC3)CC4)C2)c2cnn(C)c2n1")
-5
>>> observed("CCNCC(=O)NC12CCC(Cn3nc(C)c4c3CCN(c3cc(C)nc5c3cnn5C)C4)(CC1)CC2")
-5.3
>>> observed("Cc1cc(N2CCc3c(c(C)nn3CC34CCC(NC(=O)[C@H]5COCCN5)(CC3)CC4)C2)c2cnn(C)c2n1")
-5.3
>>> observed("CC(=O)NC12CCC(Cn3nc(C)c4c3CCN(c3cc(C)nc5c3cnn5C)C4)(CC1)CC2")
-4.6
>>> observed("Cc1cc(N2CCc3c(c(C)nn3CC34CCC(NC(=O)[C@@H]5COCCN5)(CC3)CC4)C2)c2cnn(C)c2n1")
-5.2

Documented log(permeability) of `Cc1cc(N2CCc3c(c(C)nn3CC34CCC(NC(=O)CN5CCC5)(CC3)CC4)C2)c2cnn(C)c2n1` : -4.6

# log(permeability) (compound: `Cc1cc(N2CCc3c(c(C)nn3CC34CCC(N5CCCC5)(CC3)CC4)C2)c2cnn(C)c2n1` ) is -4.7

Documented log(permeability) of `Cc1cc(N2CCc3c(c(C)nn3CC34CCC(N5CCOCC5)(CC3)CC4)C2)c2cnn(C)c2n1` : -4.1

Given item `Cc1cc(N2CCc3c(c(C)nn3CC34CCC(NC(=O)CN5CCCC5)(CC3)CC4)C2)c2cnn(C)c2n1` , the value recorded as its log(permeability) is -4.1

Item: `Cc1cc(N2CCc3c(c(C)nn3CC34CCC(NS(C)(=O)=O)(CC3)CC4)C2)c2cnn(C)c2n1` | log(permeability): -4.8

----------
Listing of entries alongside the reported log10 microsomal CLint.
Assay: Metabolic stability in rat liver microsomes assessed as intrinsic clearance
Assay type: ADME, Microsome
Conditions: read-out: CLH
Scale type: logarithmic (base 10). Underlying microsomal CLint unit: µL/min/mg.

Reference set, count: 3
>>> observed("Cc1cc(N2CCc3c(c(C)nn3CC34CCC(NC(=O)[C@@H]5CNCCO5)(CC3)CC4)C2)c2cnn(C)c2n1")
1.38
>>> observed("CC(=O)NC12CCC(Cn3nc(C)c4c3CCN(c3cc(C)nc5c3cnn5C)C4)(CC1)CC2")
1.65
>>> observed("CN[C@@H](C)C(=O)NC12CCC(Cn3nc(C)c4c3CCN(c3cc(C)nc5c3cnn5C)C4)(CC1)CC2")
1.53

Could you now look at the following molecule, please?
// log10 microsomal CLint lookup, molecule = `Cc1cc(N2CCc3c(c(C)nn3CC34CCC(NCC(=O)N(C)C)(CC3)CC4)C2)c2cnn(C)c2n1` , result: 1.46
